B1: Pistol ribozyme (parent)
chain: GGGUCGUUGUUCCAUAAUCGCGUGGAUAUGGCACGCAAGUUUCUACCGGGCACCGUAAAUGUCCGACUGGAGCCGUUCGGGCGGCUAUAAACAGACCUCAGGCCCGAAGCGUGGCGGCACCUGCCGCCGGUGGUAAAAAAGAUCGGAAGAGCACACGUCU

variants of: B1; test: aptazyme ON/OFF ratio, guanine; higher = stronger switching; co-transcriptional cleavage with and without guanine
parameter-measured: aptazyme ON/OFF ratio

>>> measured("U7C U8G G9A U10C U11A C12U")
1.09
>>> measured("U7G G9U C12U")
2.07
>>> measured("U7G U8G G9U U10A U11A C13A")
1.14
>>> measured("U7G U10G U11A C13U")
1.11
>>> measured("U7C G9C U11A C12A C13G")
1.07
>>> measured("U7G U8C G9C U10A U11A C12A C13A")
1.12
>>> measured("U7G U8A G9U U10G C12U C13U")
1.13
>>> measured("U7A U8C U11C C12U C13U")
1.29
>>> measured("U7G U8C G9U U10G U11G C13A")
1.22
>>> measured("U8G G9U U10G C12A C13U")
1.05
>>> measured("U8G G9C U10G U11A C12U C13U")
1.12
>>> measured("U8G G9A U10A U11C C12G C13A")
1.24
>>> measured("G9A U10C C13G")
1.03
>>> measured("U7C U8C G9A U10C U11G C12U C13U")
1.23
>>> measured("U8A G9U U10G U11G C12G C13U")
1.34
>>> measured("U8C G9A U10A U11A C12A C13U")
1.3
>>> measured("U7A G9U U10C U11G C12U C13G")
1.12
>>> measured("U7G U8C U10C C13G")
1.07
>>> measured("U7G U8A U10A C13U")
1.25
>>> measured("G9C U10G U11G C12U")
1.13
>>> measured("U8A G9U U10C C12A C13G")
1.06
>>> measured("U7C C12U C13A")
1.55
>>> measured("U7G G9U U10C C12G C13A")
1.27
>>> measured("U7G U8A G9C U10C U11G")
1.05
>>> measured("U7A U8G G9C")
1.97
>>> measured("U7C U8G G9A U10A U11A C12A")
1.26
>>> measured("U7A U8C G9A U10C U11G C12U C13U")
1.41
>>> measured("U7G G9U U10G U11C C12U C13A")
1.23
>>> measured("U7C U8C U11G C12A C13A")
1.14
>>> measured("U7C U8G G9C U11C C12G C13A")
1.4
>>> measured("U7C U8G G9A U10G U11G C12G C13A")
1.42
>>> measured("U7A U8A G9U U11C C12G C13A")
1.18
>>> measured("U7A G9C U10G U11A C13A")
1.02
>>> measured("G9C C13A")
1.02
>>> measured("U7G G9A U10C")
3.35
>>> measured("U10A U11A C12U C13A")
1.54
>>> measured("U7C U8G G9A U10C U11G C12A C13A")
1.12
>>> measured("U7C U8G G9U U11C C12U C13A")
1.38
>>> measured("U7C U8C U10C U11G C12G")
1.18
>>> measured("U8C U10C C13A")
1.07
>>> measured("U7C U8G G9A U11G C12G C13U")
1.18
>>> measured("U7G U8G U11C")
1.35
>>> measured("G9A C13U")
1.52
>>> measured("U7A U10G U11C C12G C13A")
1.13
>>> measured("U7C U8C G9U U10A U11G C12G C13U")
1.07
>>> measured("U7C U8C U10C C12A C13U")
1.35
>>> measured("U7A U8C G9U C12A")
1.26
>>> measured("U7A U8C G9A U10A C12G C13A")
1.14
>>> measured("U7C U8C U10G U11C C12U C13U")
1.29
>>> measured("U7A U8C G9U U11C C12A")
1.28
>>> measured("U7A U8G G9A U10A U11A C13U")
1.17
>>> measured("U8G U10C U11C C12G")
1.21
>>> measured("U7C U8G G9A U10A U11G C12A C13U")
1.16
>>> measured("U8G G9C U11C C12U C13U")
1.04
>>> measured("U7A U8G G9U U10G U11C C12G C13U")
1.22
>>> measured("U7A U8A G9U C12U C13G")
1.16
>>> measured("U7G U8A G9C U10A U11A C12G C13A")
1.04
>>> measured("U7G U8G U10G U11G C12U C13A")
1.13
>>> measured("U8A G9A U11C C12G C13A")
1.15
>>> measured("U7G U8A G9C U11A C12U C13U")
1.02
>>> measured("U7C U8C G9C U10C U11A")
1.4
>>> measured("U8C G9C U10C U11G C12A C13U")
1.15
>>> measured("U7G U8C G9C U10A U11A C12U")
1.16
>>> measured("U8G G9A U10C U11A C12U C13G")
1.05
>>> measured("U7A U8G G9C U10C U11C C12G C13U")
1.07
>>> measured("U7G G9U U10C U11G C12A C13A")
1.1
>>> measured("U8G G9C U10C U11C C12A C13U")
1.07
>>> measured("U7G U8C G9C U10A U11A C12G C13G")
1.11
>>> measured("U7A G9A U10A U11G C13G")
1.11
>>> measured("U7C U8G U10A U11C C12G C13G")
1.22
>>> measured("U7C U8A U11C C13U")
1.04
>>> measured("U8C G9U U10G C12G C13U")
1.3
>>> measured("G9C U10A U11A C13G")
1.05
>>> measured("U7G U8G G9U U10G")
1.42
>>> measured("U7C G9C U10A U11A C12A")
1.16
>>> measured("U7C U8C G9U U10C U11C C13A")
1.02
>>> measured("U8C G9C U10A U11C C13G")
1.2
>>> measured("U7G U8A G9C U10G U11C C12U C13A")
1.05
>>> measured("U7C U8A U11C C12G C13A")
1.3
>>> measured("U7C U8C U10G C12A C13G")
1.08
>>> measured("U7G U8G U10C U11G C12G C13A")
1.19
>>> measured("U7C U8G G9U U10A U11A C12A")
1.25
>>> measured("U8A G9C U10C U11G C12G")
1.12
>>> measured("U7G U8C G9A U10G C12G")
1.13
>>> measured("U7C U8A G9A U10G U11A C12G C13G")
1.07
>>> measured("U8C G9A U10C U11C C12A C13A")
1.13
>>> measured("U7A U8C G9A C13U")
1.18
>>> measured("U7G U8C G9C U11C")
1.87
>>> measured("U7C U8C G9U U11C C12G")
1.22
>>> measured("U7C G9A U10G C12U C13G")
1.17
>>> measured("U7C U8A G9U U11C C12G C13G")
1.12
